Tested on: lysine peptide Ac-RFAAKAA-COOH
assayProtocol: efficacy of lysine peptide change (negative = depletion) (% activity); higher = less depletion
measurementContext: incubation time: 24 h
Please use YES whenever efficacy of lysine peptide change is not below 60, and NO whenever it is.

## Task Please indicate if the recorded efficacy of lysine peptide change for C=CCOC(=O)/C=C\C(=O)OCC=C [Diprop-2-en-1-yl (2Z)-but-2-enedioate] meets or exceeds 60.
## Result NO

## Task What about this compound? C[n+]1cc2c3c(ccc2c2ccc4cc5c(cc4c21)OCO5)OCO3
## Result YES

## Task What about this compound? O=C(CCl)CCl
## Result NO

## Task What about this compound? C=C1C[C@@H]2[C@H](CC[C@]3(C)C(=O)CC[C@@H]23)[C@@]2(C)C=CC(=O)C=C12
## Result YES

## Task What about this compound? CCCCCOc1ccccc1/C(=C\SC)n1ccnc1
## Result YES

---

Kindly state efficacy of lysine peptide change for each of the entries shown.
Test system: lysine peptide Ac-RFAAKAA-COOH
assayProtocol: efficacy of lysine peptide change (negative = depletion) (% activity); higher = less depletion
measurementContext: incubation time: 24 h
Answer with a number only.

## Task Suppose we examine the compound Cc1ccc(N)cc1O [5-Amino-2-methylphenol] ; what efficacy of lysine peptide change value has been reported?
## Result -3.52

## Task What about this compound? CCCSS/C(CCO)=C(/C)N(C=O)Cc1cnc(C)nc1N [Prosultiamine]
## Result 154

## Task What about this compound? CCC(=O)C=Cc1ccc(OC)cc1 [1-(4-Methoxyphenyl)-1-pentene-3-one]
## Result 29.4

## Task What about this compound? CC(C(=O)O)c1ccc(/C=C2\CCCCC2=O)cc1 (centres undefined) [Pelubiprofen]
## Result 56.7

## Task What about this compound? CCOC(=O)NC(=S)Nc1ccccc1NC(=S)NC(=O)OCC [Thiophanate]
## Result 34.5

## Task What about this compound? N#Cc1nc(Cl)c(Cl)c(Cl)c1Cl [3,4,5,6-Tetrachloro-2-pyridinecarbonitrile]
## Result 43.7

## Task What about this compound? CCCCC1C(=O)N(c2ccccc2)N(c2ccc(O)cc2)C1=O (centres undefined) [Oxyphenbutazone]
## Result 12.6

## Task What about this compound? CC(C)(C)c1cc(O)ccc1O [tert-Butylhydroquinone]
## Result -30.8

## Task What about this compound? CC(=O)C1(C)CC2=C(CCCC2(C)C)CC1C (centres undefined)
## Result 3.3

---

Test system: cysteine peptide Ac-RFAACAA-COOH
assayProtocol: efficacy of cysteine peptide change (negative = depletion) (% activity); higher = less depletion
measurementContext: incubation time: 24 h
Structures can show the parent of a compound that is named as a salt.
attributeMeasured: efficacy of cysteine peptide change
Answer with a number only.

## Task Suppose we examine the compound CCCCCCC(C)O (configuration not stated) ; what efficacy of cysteine peptide change value has been reported?
## Result 0

## Task What about this compound? COc1ccc2[nH]cc(CCN(C(C)C)C(C)C)c2c1 [5-Methoxy-N,N-diisopropyltryptamine hydrochloride]
## Result -5.5

## Task What about this compound? O=[N+]([O-])c1cc(N(CCO)CCO)ccc1NCCO
## Result -49.3

## Task What about this compound? CC(C)(C)c1ccc(C(=O)CCCCl)cc1
## Result 94.9

## Task What about this compound? COP(=O)(O)OP(=O)(O)OC [Dimethyl dihydrogen diphosphate]
## Result 0

## Task What about this compound? Cl/C=C\C[N+]12CN3CN(CN(C3)C1)C2 [Chloroallyl methenamine chloride]
## Result -102

## Task What about this compound? N#C/C=C/C#N
## Result -104
